# Tested on: ChaGo-K-1
# Method summary: relative viability (nuclei count vs DMSO), 5 days (fraction); higher = more cells survive
# Test context: first compound 0.4 µM
Experimental endpoint: relative viability
The reply should be a number, written without any unit.

Examples with answers:
1. Clc1ccc(Nc2nnc(Cc3ccncc3)c3ccccc23)cc1 [Vatalanib] + CC(=O)Nc1cccc(-n2c(=O)n(C3CC3)c(=O)c3c(Nc4ccc(I)cc4F)n(C)c(=O)c(C)c32)c1 [Trametinib] (partner 0.02 µM)
0.928
2. C[C@@H]1CN(CC(=O)Nc2ccc3c(c2)Cc2cccc(-c4cc(=O)cc(N5CCOCC5)o4)c2S3)C[C@H](C)O1 + COc1cc2c(Oc3ccc(NC(=O)C4(C(=O)Nc5ccc(F)cc5)CC4)cc3F)ccnc2cc1OCCCN1CCOCC1 [Foretinib] (partner 0.25 µM)
0.892
3. Clc1ccc(Nc2nnc(Cc3ccncc3)c3ccccc23)cc1 [Vatalanib] + O=C(CCCCCCC(=O)Nc1ccccc1)NO [Vorinostat] (partner 1 µM)
0.848

GET /value?item= C[C@@H]1CN(CC(=O)Nc2ccc3c(c2)Cc2cccc(-c4cc(=O)cc(N5CCOCC5)o4)c2S3)C[C@H](C)O1 + Cc1nc(Nc2ncc(C(=O)Nc3c(C)cccc3Cl)s2)cc(N2CCN(CCO)CC2)n1 [Dasatinib] (partner 0.075 µM) &field=relative viability returns 0.553

GET /value?item= Clc1ccc(Nc2nnc(Cc3ccncc3)c3ccccc23)cc1 [Vatalanib] + Cc1nc(Nc2ncc(C(=O)Nc3c(C)cccc3Cl)s2)cc(N2CCN(CCO)CC2)n1 [Dasatinib] (partner 0.075 µM) &field=relative viability returns 0.582

GET /value?item= Clc1ccc(Nc2nnc(Cc3ccncc3)c3ccccc23)cc1 [Vatalanib] + Nc1nc2[nH]cc(CCc3ccc(C(=O)N[C@@H](CCC(=O)O)C(=O)O)cc3)c2c(=O)[nH]1 [Pemetrexed] (partner 0.2 µM) &field=relative viability returns 0.265

GET /value?item= COc1cc(N2CCC(C(N)=O)CC2)ccc1Nc1nc(N)c(Cl)c(Nc2ccccc2S(=O)(=O)C(C)C)n1 [HG-5-88-01] + CS(=O)(=O)N1CCN(Cc2cc3nc(-c4cccc5[nH]ncc45)nc(N4CCOCC4)c3s2)CC1 [Pictilisib] (partner 1 µM) &field=relative viability returns 0.679

GET /value?item= C[C@@H]1CN(CC(=O)Nc2ccc3c(c2)Cc2cccc(-c4cc(=O)cc(N5CCOCC5)o4)c2S3)C[C@H](C)O1 + NC(=O)Nc1cc(-c2cccc(F)c2)sc1C(=O)N[C@H]1CCCNC1 [AZD7762] (partner 0.2 µM) &field=relative viability returns 0.847
